ASSAY_TEXT: Multiple ascending-dose (MAD) study, plasma pharmacokinetics
Assay type: in vivo, human
EXPERIMENTAL_SETUP: MAD 40 mg (N = 10), D1, after standard meal, mean (SD)
QUANTITY: Cl/F (L/h)
Number only, in L/h; omit the unit.

IN: Given the compound Cc1nc(-c2cnc(N3CCN(CCCc4c[nH]c5ccc(C#N)cc45)CC3)nc2)sc1C(N)=O [HEC113995PA·H2O] , what is its reported Cl/F?
OUT: 8.8
